- TEST_SYSTEM: GRK2 (Homo sapiens)
- Construct: purchased SignalChem A14-10G
- Sequence (P25098 whole entry): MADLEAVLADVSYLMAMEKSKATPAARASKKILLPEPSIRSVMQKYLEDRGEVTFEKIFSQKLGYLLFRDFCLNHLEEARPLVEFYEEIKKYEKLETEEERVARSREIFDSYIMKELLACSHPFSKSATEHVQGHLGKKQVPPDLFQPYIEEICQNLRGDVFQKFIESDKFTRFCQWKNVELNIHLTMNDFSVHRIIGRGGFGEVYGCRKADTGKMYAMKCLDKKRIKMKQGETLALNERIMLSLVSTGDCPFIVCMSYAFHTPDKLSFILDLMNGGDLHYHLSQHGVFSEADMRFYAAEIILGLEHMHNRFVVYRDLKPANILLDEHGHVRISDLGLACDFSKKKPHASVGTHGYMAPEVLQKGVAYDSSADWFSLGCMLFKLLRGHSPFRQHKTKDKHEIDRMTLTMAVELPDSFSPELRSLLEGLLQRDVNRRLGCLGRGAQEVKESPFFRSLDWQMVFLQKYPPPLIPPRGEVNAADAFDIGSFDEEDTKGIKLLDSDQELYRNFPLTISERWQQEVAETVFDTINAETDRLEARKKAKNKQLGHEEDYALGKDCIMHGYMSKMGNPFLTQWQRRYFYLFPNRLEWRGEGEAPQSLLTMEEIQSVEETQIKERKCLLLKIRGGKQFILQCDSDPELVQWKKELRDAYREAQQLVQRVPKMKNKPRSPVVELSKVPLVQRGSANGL
- ASSAY_INFO: ADPGlo GRK2 Inhibition Assay (Example 8)
- Assay type: biochemical
- TEST_CONTEXT: 7.5 nM GRK2, 10 μM ATP, ADP-Glo; read-out: GRK2 IC50 (nM) (Example 8)
Assignment: determine reported IC50 for the given compounds.
Please state the figure in nM; there is no need to write the unit.

Lookup: Query: IC50; subject: CCOc1ccccc1CNC(=O)c1cccc(NCc2nnc(-c3ccncn3)n2C)c1
Found: 30

Lookup: Which IC50 value belongs to Cn1ccnc1[C@@H](NC(=O)c1cccc(NCc2nnc(-c3ccncc3)[nH]2)c1)C1CC1 ?
Found: 10

Lookup: What IC50 value was documented for this compound, Cn1c(CNc2cccc(C(=O)NCc3cnccc3Cl)c2)nnc1-c1ccncn1 ?
Found: 4.3

Lookup: What does the record list as IC50 for Cn1c(CNc2cccc(C(=O)NCc3ccc4c(c3)CCN4)c2)nnc1-c1ccncn1 ?
Found: 9.4

Lookup: GET /values?readout=IC50&item= CCn1ncc(CNC(=O)c2cccc(NCc3nnc(-c4ccncn4)n3C)c2)c1F
Found: 18

Lookup: Which IC50 is listed for Cc1ccn2c(CNC(=O)c3cccc(NCc4nnc(-c5ccncn5)n4C)c3)cnc2c1 ?
Found: 3

Lookup: Which IC50 value is on record for COc1cccc(C(C)NC(=O)c2cccc(NCc3nnc(-c4ccncn4)n3C)c2)c1 (centres unmarked) ?
Found: 4.4

Lookup: Requested field: IC50. Item: COc1cccc([C@@H](C)NC(=O)c2cccc(NCc3nnc(-c4ccncn4)n3C)c2)c1
Found: 12

###

For each record, write down the corresponding IC50.
- TEST_SYSTEM: GRK2 (Homo sapiens)
- Construct: purchased SignalChem A14-10G
- ASSAY_INFO: ADPGlo GRK2 Inhibition Assay (Example 8)
- Format: biochemical
- TEST_CONTEXT: 7.5 nM GRK2, 10 μM ATP, ADP-Glo; read-out: GRK2 IC50 (nM) (Example 8)
Could you give me the number in nM? Just the number is fine.

Lookup: Dear colleague, I am looking for the recorded IC50 of the following molecule: Cc1cccc2ncc(CNC(=O)c3cccc(NCc4nnc(-c5ccncn5)n4C)c3)n12
Found: 0.79

Lookup: Using the record for Cn1c(CNc2cccc(C(=O)NCc3ccc(-n4ccnn4)cc3)c2)nnc1-c1ccncn1 , report its IC50.
Found: 9.5

Lookup: Quick one: IC50 of Cn1ccnc1C(NC(=O)c1cccc(NCc2nnc(-c3ccncc3)[nH]2)c1)C1CC1 (centres unmarked) ?
Found: 5.5

Lookup: // IC50 lookup, key: Cn1c(CNc2cccc(C(=O)N[C@@H]3COCc4ccccc43)c2)nnc1-c1ccncn1
Found: 22

Lookup: Which IC50 reading was recorded for the molecule C[C@H](NC(=O)c1cccc(NCc2nnc(-c3ccncn3)n2C)c1)c1cccnc1 ?
Found: 420

Lookup: Which IC50 value is on record for Cn1c(CNc2cccc(C(=O)NCc3cccc(F)c3)c2)nnc1-c1ccncn1 ?
Found: 49

Lookup: What measured IC50 goes with CCc1cnccc1CNC(=O)c1cccc(NCc2nnc(-c3ccncn3)n2C)c1 ?
Found: 51

Lookup: Quick check: IC50 of Cc1nc(CNC(=O)c2cccc(NCc3nnc(-c4ccncn4)n3C)c2)cs1 ?
Found: 9.8

Lookup: Given the molecule Cn1c(CNc2cccc(C(=O)NCc3ccnc(OCC(F)(F)F)c3)c2)nnc1-c1ccncn1 , what is its reported IC50?
Found: 17

Lookup: Consider the molecule shown here: Cn1c(CNc2cccc(C(=O)NCc3ccc(C#N)cc3)c2)nnc1-c1ccncn1 What is its recorded IC50?
Found: 6.3

Lookup: # lookup: IC50 of Cn1c(CNc2cccc(C(=O)N[C@H]3COc4ccccc43)c2)nnc1-c1ccncn1
Found: 9.8

Lookup: Data request, read-out IC50, for Cc1cccnc1CNC(=O)c1cccc(NCc2nnc(-c3ccncn3)n2C)c1
Found: 14

Lookup: # input molecule: COc1cccc2c1CC[C@H]2NC(=O)c1cccc(NCc2nnc(-c3ccncn3)n2C)c1 ; wanted: its IC50
Found: 15

Lookup: I'd like to know its IC50. The molecule in question is Cn1nccc1CNC(=O)c1cccc(NCc2nnc(-c3ccncn3)n2C)c1
Found: 5.7

Lookup: Request the reported IC50 associated with CN1CCC(NC(=O)c2cccc(NCc3nnc(-c4ccncn4)n3C)c2)c2ccccc21 (centres unmarked)
Found: 37

Lookup: Given the entry Cn1c(CNc2cccc(C(=O)N[C@H]3CCOc4ccccc43)c2)nnc1-c1ccncn1 , report its measured IC50.
Found: 18

Lookup: Suppose we examine the molecule Cn1c(CNc2cccc(C(=O)NC3CCOc4c(Cl)cccc43)c2)nnc1-c1ccncn1 (centres unmarked) ; what IC50 value has been reported?
Found: 10
